System: PPCL-46 cells
Assay remarks: Cytotoxicity in 2D culture, Alamar blue assay
Assay type: cell-based
Condition context: Homo sapiens, 48 h, read-out: IC50 μM (2D PPCL-46 culture), 48 h treatment, mean ± SEM, n = 3
Structures can show the parent of a compound that is named as a salt.
Endpoint name: IC50 (µM)
One number for each entry, in µM.

Prompt: Give IC50 for Nc1ccn([C@@H]2O[C@H](CO)[C@@H](O)C2(F)F)c(=O)n1 [GemHCl, Gemcitabine Hydrochloride] tested on PPCL-46 cells.
Completion: 75.5

---

System: MiaPaCa-2 cells
Assay remarks: Cytotoxicity in 2D culture, Alamar blue assay
Assay type: cell-based
Condition context: Homo sapiens, MIA PaCa-2, 48 h, read-out: IC50 μM (2D MiaPaCa-2 culture)
Where a name gives a salt, the structure may show the parent alone.
Endpoint name: IC50 (µM)
Numbers only, in µM.

Prompt: Could you please provide reported IC50 for Nc1ccn([C@@H]2O[C@H](CO)[C@@H](O)C2(F)F)c(=O)n1 [GemHCl, Gemcitabine Hydrochloride] ? Thanks!
Completion: 45.7
